Test system: wheat germ agglutinin (Triticum aestivum), Alexa647-labelled
EXPERIMENT_SUMMARY: Alexa647-WGA lectin binding to printed small molecules – biochemical, small-molecule microarray, 635/667 nm fluorescence, artefact control for SMM control-protein annotation, profiling panel (AID 1140);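 further: score merges 667 nm feature emission with signal to noise over triplicate slides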
TEST_CONTEXT: WGA-A647 binding, 635 nm fluorescence, higher = more signal
Quick reference for composite z-score among some molecules
I'd appreciate a reply containing only the number, no unit.

MOLECULE | composite z-score
CCCCCCCCCCC(O)C1C=CC2C(=O)NC(=O)C2N1Nc1ccc(Cl)cc1Cl (stereo unspecified) | 0.117
CC(c1ccccc1)C(O)C1C=CC2C(=O)N(C)C(=O)C2N1NC(=O)OC(C)(C)C (stereo unspecified) | 0.939
CCOC(=O)C1=CC[C@H]2C(=O)N(c3ccccc3)C(=O)[C@@H]12 | 0.56

Form: molecule = C=CCOC(=O)[C@H]1[C@@H]2C(=O)O[C@@H](c3ccccc3)[C@@H](c3ccccc3)N2[C@@H](c2ccc(OCCOC(=O)[C@@H]3C[C@@H]4C(=O)N5CCC[C@H]5C(=O)N4[C@@H]3c3cccc(OCCO)c3)cc2)[C@]12C(=O)Nc1ccc(I)cc12 ; composite z-score = 0.458

Value of composite z-score reported for the molecule COC(=O)c1c(CC[C@@H](CO)NC(=O)N[C@H](Cc2ccccc2)Cn2cc(-c3ccccn3)nn2)oc(C(C)=O)c1C(=O)OC is 0.205
